Criterion: glass transition temperature strictly less than 80 °C. Met: Condition met. Not met: Condition not met.

compound: *CC(CCCCCCCCCCCC)COC(=O)NC(=O)c1ccc(C(=O)NC(=O)O*)cc1 (repeat unit)
label: Condition met

Task: Would you kindly verify if glass transition temperature of *CC(*)(C)C(=O)OCCCCCCCCCCOc1ccc(OC(=O)c2ccc(OCCCCCCCC)cc2)cc1 (repeat unit) is strictly less than 80 °C?
Result: Condition met

Task: Just wondering, is glass transition temperature of *CC(*)OC(=O)c1ccccc1OC(C)=O (repeat unit) below 80 °C?
Result: Condition met

Task: # strict comparison: is reported glass transition temperature < 80 °C? input = *O[Si](*)(C)CCCOc1ccc(N(c2ccc(C)cc2)c2ccc(-c3ccc(N(c4ccccc4)c4ccc(C)cc4)cc3)cc2)cc1 (repeat unit)
Result: Condition not met
